system: CYP1A2; assay: CYP1A2 enzyme induction assay in cryopreserved primary human hepatocytes (PHH); format: in vitro ADME; settings: PHH; Lab 3; batch 4 0 8;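 also: code 1 means positive inducer and 0 means non-inducer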
Readout: Assigned classification CYP1A2

Some molecules with recorded Assigned classification CYP1A2:
{"columns": ["Molecule", "Assigned classification CYP1A2"],
 "data": [
  ["CO[C@H]1/C=C/O[C@@]2(C)Oc3c(C)c(O)c4c(c3C2=O)C2=NC3(CCN(CC(C)C)CC3)NC2=C(NC(=O)/C(C)=C\\C=C\\[C@H](C)[C@H](O)[C@@H](C)[C@@H](O)[C@@H](C)[C@H](OC(C)=O)[C@@H]1C)C4=O", 0],
  ["CO[C@H]1/C=C/O[C@@]2(C)Oc3c(C)c(O)c4c(O)c(c(/C=N/N5CCN(C)CC5)c(O)c4c3C2=O)NC(=O)/C(C)=C\\C=C\\[C@H](C)[C@H](O)[C@@H](C)[C@@H](O)[C@@H](C)[C@H](OC(C)=O)[C@@H]1C", 0],
  ["O=C1NC(=O)C(c2ccccc2)(c2ccccc2)N1 [Phenytoin sodium]", 1],
  ["COCCc1ccc(OCC(O)CNC(C)C)cc1 (stereo not drawn)", 0],
  ["COc1ccccc1Oc1c(NS(=O)(=O)c2ccc(C(C)(C)C)cc2)nc(-c2ncccn2)nc1OCCO [Bosentan hydrate]", 0]
]}

a. O=C1Nc2ccc(Cl)cc2[C@@](C#CC2CC2)(C(F)(F)F)O1
b. COc1ccc2[nH]c([S+]([O-])Cc3ncc(C)c(OC)c3C)nc2c1 (stereo not drawn)
# input // returns a or b , whichever has the lower Assigned classification CYP1A2 # reply format: chosen label
# output a
(a: 0, b: 1)

---

system: CYP2B6; test: CYP2B6 enzyme induction assay in cryopreserved primary human hepatocytes (PHH); assay type: in vitro ADME; settings: PHH; Lab 1; batch 0 6 A;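 also: code 1 means positive inducer and 0 means non-inducer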
Counter-ions that a name gives are not always drawn.
Readout: Assigned classification CYP2B6

Some molecules with recorded Assigned classification CYP2B6:
{"columns": ["Molecule", "Reported value"],
 "data": [
  ["CO[C@H]1/C=C/O[C@@]2(C)Oc3c(C)c(O)c4c(c3C2=O)C2=NC3(CCN(CC(C)C)CC3)NC2=C(NC(=O)/C(C)=C\\C=C\\[C@H](C)[C@H](O)[C@@H](C)[C@@H](O)[C@@H](C)[C@H](OC(C)=O)[C@@H]1C)C4=O [Rifabutin]", 1],
  ["CO[C@H]1/C=C/O[C@@]2(C)Oc3c(C)c(O)c4c(O)c(c(/C=N/N5CCN(C)CC5)c(O)c4c3C2=O)NC(=O)/C(C)=C\\C=C\\[C@H](C)[C@H](O)[C@@H](C)[C@@H](O)[C@@H](C)[C@H](OC(C)=O)[C@@H]1C [Rifampicin]", 1],
  ["O=C1NC(=O)C(c2ccccc2)(c2ccccc2)N1 [Phenytoin sodium]", 1],
  ["NC(=O)N1c2ccccc2C=Cc2ccccc21 [Carbamazepine]", 1],
  ["COc1ccc2[nH]c([S+]([O-])Cc3ncc(C)c(OC)c3C)nc2c1 (stereo not drawn) [Omeprazole]", 1]
]}

1. COc1ccccc1Oc1c(NS(=O)(=O)c2ccc(C(C)(C)C)cc2)nc(-c2ncccn2)nc1OCCO [Bosentan hydrate]
2. COCCc1ccc(OCC(O)CNC(C)C)cc1 (stereo not drawn) [Metoprolol]
# input // returns 1 or 2 , whichever has the lower Assigned classification CYP2B6 # reply format: chosen label
# output 2
(2: 0, 1: 1)

P. CC(C)NCC(O)c1ccc(NS(C)(=O)=O)cc1 (stereo not drawn) [Sotalol hydrochloride]
Q. O=C1Nc2ccc(Cl)cc2[C@@](C#CC2CC2)(C(F)(F)F)O1 [Efavirenz]
# input // returns P or Q , whichever has the lower Assigned classification CYP2B6 # reply format: chosen label
# output P
(P: 0, Q: 1)

---

tested on: CYP3A4; assay: CYP3A4 enzyme induction assay in cryopreserved HepaRG cells (midazolam probe, LC/MS); type: in vitro ADME, human; details: HepaRG; Lab 2; batch 20; also: key: 1=Positive=inducer; 0=Negative=non-inducer
Structures can show the parent of a compound that is named as a salt.
Readout: Assigned classification CYP3A4

Some compounds with recorded Assigned classification CYP3A4:
{"columns": ["Compound", "Readout", "Reported value"],
 "data": [
  ["O=C1NC(=O)C(c2ccccc2)(c2ccccc2)N1 [Phenytoin sodium]", "Assigned classification CYP3A4", 1],
  ["NC(=O)N1c2ccccc2C=Cc2ccccc21 [Carbamazepine]", "Assigned classification CYP3A4", 1],
  ["CC(C)NCC(O)c1ccc(NS(C)(=O)=O)cc1 (stereo not drawn) [Sotalol hydrochloride]", "Assigned classification CYP3A4", 0],
  ["COCCc1ccc(OCC(O)CNC(C)C)cc1 (stereo not drawn)", "Assigned classification CYP3A4", 0]
]}

1. COc1ccccc1Oc1c(NS(=O)(=O)c2ccc(C(C)(C)C)cc2)nc(-c2ncccn2)nc1OCCO [Bosentan hydrate]
2. COc1ccc2[nH]c([S+]([O-])Cc3ncc(C)c(OC)c3C)nc2c1 (stereo not drawn)
# input // returns 1 or 2 , whichever has the lower Assigned classification CYP3A4 # reply format: chosen label
# output 2

---

tested on: CYP3A4; assay: CYP3A4 enzyme induction assay in cryopreserved primary human hepatocytes (PHH); settings: CYP3A4, PHH
Where a name gives a salt, the structure may show the parent alone.
Readout: Induction in vitro

Some compounds with recorded Induction in vitro:
{"columns": ["Compound", "Induction in vitro"],
 "data": [
  ["O=C1Nc2ccc(Cl)cc2[C@@](C#CC2CC2)(C(F)(F)F)O1", "Yes"],
  ["COc1ccc2[nH]c([S+]([O-])Cc3ncc(C)c(OC)c3C)nc2c1 (stereo not shown)", "Yes"],
  ["COc1ccccc1Oc1c(NS(=O)(=O)c2ccc(C(C)(C)C)cc2)nc(-c2ncccn2)nc1OCCO [Bosentan hydrate]", "Yes"],
  ["O=C1NC(=O)C(c2ccccc2)(c2ccccc2)N1 [Phenytoin sodium]", "Yes"],
  ["CC(C)NCC(O)c1ccc(NS(C)(=O)=O)cc1 (stereo not shown) [Sotalol hydrochloride]", "No"]
]}

# input Give recorded Induction in vitro. NC(=O)N1c2ccccc2C=Cc2ccccc21 [Carbamazepine]
# output Yes

# input Give recorded Induction in vitro. COCCc1ccc(OCC(O)CNC(C)C)cc1 (stereo not shown)
# output No

---

system: CYP2B6; test: CYP2B6 enzyme induction assay in cryopreserved HepaRG cells (bupropion probe, LC/MS); format: in vitro ADME, human; conditions: HepaRG; Lab 1; batch 36; also: key: 1=Positive=inducer; 0=Negative=non-inducer
Readout: Assigned classification CYP2B6

Some compounds with recorded Assigned classification CYP2B6:
{"columns": ["Compound", "Tgt", "Reported value"],
 "data": [
  ["COc1ccc2[nH]c([S+]([O-])Cc3ncc(C)c(OC)c3C)nc2c1 (stereo not shown)", "CYP2B6", 0],
  ["O=C1NC(=O)C(c2ccccc2)(c2ccccc2)N1 [Phenytoin sodium]", "CYP2B6", 1],
  ["CO[C@H]1/C=C/O[C@@]2(C)Oc3c(C)c(O)c4c(O)c(c(/C=N/N5CCN(C)CC5)c(O)c4c3C2=O)NC(=O)/C(C)=C\\C=C\\[C@H](C)[C@H](O)[C@@H](C)[C@@H](O)[C@@H](C)[C@H](OC(C)=O)[C@@H]1C", "CYP2B6", 0],
  ["COCCc1ccc(OCC(O)CNC(C)C)cc1 (stereo not shown)", "CYP2B6", 0]
]}

1. COc1ccccc1Oc1c(NS(=O)(=O)c2ccc(C(C)(C)C)cc2)nc(-c2ncccn2)nc1OCCO [Bosentan hydrate]
2. NC(=O)N1c2ccccc2C=Cc2ccccc21 [Carbamazepine]
# input So which one has the bigger Assigned classification CYP2B6 here, 1 or 2 ? # reply format: chosen label
# output 2

---

test system: CYP1A2; test: CYP1A2 enzyme induction assay in cryopreserved primary human hepatocytes (PHH); format: in vitro ADME; details: PHH; Lab 2; batch 8 0 8;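 also: code 1 means positive inducer and 0 means non-inducer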
Counter-ions that a name gives are not always drawn.
Readout: Assigned classification CYP1A2

Some compounds with recorded Assigned classification CYP1A2:
{"columns": ["Compound", "Readout", "Reported value"],
 "data": [
  ["COCCc1ccc(OCC(O)CNC(C)C)cc1 (stereo not drawn) [Metoprolol]", "Assigned classification CYP1A2", 0],
  ["CC(C)NCC(O)c1ccc(NS(C)(=O)=O)cc1 (stereo not drawn) [Sotalol hydrochloride]", "Assigned classification CYP1A2", 0],
  ["CO[C@H]1/C=C/O[C@@]2(C)Oc3c(C)c(O)c4c(O)c(c(/C=N/N5CCN(C)CC5)c(O)c4c3C2=O)NC(=O)/C(C)=C\\C=C\\[C@H](C)[C@H](O)[C@@H](C)[C@@H](O)[C@@H](C)[C@H](OC(C)=O)[C@@H]1C [Rifampicin]", "Assigned classification CYP1A2", 1],
  ["NC(=O)N1c2ccccc2C=Cc2ccccc21 [Carbamazepine]", "Assigned classification CYP1A2", 0]
]}

A. COc1ccc2[nH]c([S+]([O-])Cc3ncc(C)c(OC)c3C)nc2c1 (stereo not drawn) [Omeprazole]
B. O=C1NC(=O)C(c2ccccc2)(c2ccccc2)N1 [Phenytoin sodium]
# input // returns A or B , whichever has the lower Assigned classification CYP1A2 # reply format: chosen label
# output B
(B: 0, A: 1)
